- MEASUREMENT_PROTOCOL: Cytotoxicity activity against human HepG2 cells assessed by CellTiter-Glo luminescent cell viability assay.
- Format: toxicity, cell-based
- Set-up: assay stage confirmatory assay, source tissue liver
- COND: HepG2 cells, read-out: IC50 relative
Active and inactive are the calls of the source. The rule behind the calls is not given here.
MEASUREMENT_KIND: CC50

Tell us which CC50 value is on record for "COc1ccc(-c2ccc(CNCCNCCO)o2)cc1Cl"
11.4 µM (active)

Others:
Tell us which CC50 value is on record for "CON(C)C(=O)CSc1nc2sc(C)c(C)c2c(=O)n1Cc1ccccn1"
0.6 µM (active)

Tell us which CC50 value is on record for "CC(C)(C)c1nccc(NC(=O)c2ccc(F)c(C#N)c2)n1"
1.2 µM (active)

Tell us which CC50 value is on record for "COc1cc2nc(N3CCCN(C)CC3)nc(NC3CCN(Cc4ccccc4)CC3)c2cc1OC"
0.9 µM (active)

Tell us which CC50 value is on record for "O=S(=O)(c1ccc(N2CCN(c3ncnc4c3oc3ccccc34)CC2)nc1)N1CCOCC1"
3.3 µM (active)

Tell us which CC50 value is on record for CC(C)C[C@H](NC(=O)[C@@H](NC(=O)c1cccc(-c2ccccc2)n1)[C@@H](C)O)B(O)O [DELANZOMIB]
< 0.1 µM (active)

----------
- MEASUREMENT_PROTOCOL: Cytotoxicity activity against human HepG2 cells assessed by CellTiter-Glo luminescent cell viability assay.
- Format: toxicity, cell-based
- Parameters: assay stage confirmatory assay, source tissue liver
- COND: HepG2 cells, read-out: IC50 relative
Activity calls are given as the source filed them. The rule behind the calls is not given here.
API: response.call in active, inactive

Solved entries:
Outcome? "O=C(NCCN1CCCC1)C1CCN(c2ncccc2-c2nc(-c3ccccc3)no2)CC1"
active

Outcome? COc1ccc(C)cc1S(=O)(=O)N1CCCC(C(=O)N2CCN(c3ccccc3F)CC2)C1 (stereo not given)
inactive

Outcome? "COc1cc2c(cc1F)CN(Cc1cnc3ccccn13)CC2"
active

Others:
Outcome? COc1ncc(-c2ccc3nccc(-c4ccnnc4)c3c2)cc1NS(=O)(=O)c1ccc(F)cc1F [OMIPALISIB]
active

Outcome? "CCCNC(=O)N1CC(Oc2ccc(-c3noc(-c4cccnc4)n3)cc2)C1"
active

----------
- MEASUREMENT_PROTOCOL: Cytotoxicity activity against human HepG2 cells assessed by CellTiter-Glo luminescent cell viability assay.
- Type: toxicity, cell-based
- Set-up: assay stage confirmatory assay, source tissue liver
- COND: HepG2 cells, read-out: IC50 relative
Counter-ions that a name gives are not always drawn. Calls of active or inactive are those of the source. No rule for the calls is given here.
API: response.call in 1 (yes) = active, 0 (no) = inactive

Outcome? "CCc1nnsc1C(=O)Nc1cc(-c2cccs2)n[nH]1"
1 (yes)

Outcome? CN(C)CCCN1c2ccccc2CCc2ccc(Cl)cc21 [CLOMIPRAMINE HYDROCHLORIDE]
1 (yes)

Others:
Outcome? "CN(C)C1CCN(CCNC(=O)Nc2ccc(C3CC3)c(F)c2)CC1"
1 (yes)

Outcome? "CCNc1cc(C)nc(Nc2ccc(NC(=O)CC(C)C)cc2)n1"
1 (yes)

Outcome? Cc1ccc(C(=O)N(CCCN)C(c2oc3cc(Cl)ccc3c(=O)c2Cc2ccccc2)C(C)C)cc1 (stereo not given)
1 (yes)

Outcome? O=C(CC1CCCN(c2cn[nH]c(=O)c2)C1)Nc1cccc(Cl)c1 (stereo not given)
1 (yes)

Outcome? "C[C@H](Nc1nc(N)nc2ccccc12)c1ccccc1"
1 (yes)

Outcome? "Cc1oc(-c2ccccc2)nc1C(=O)Nc1ncccc1O"
0 (no)

Outcome? CC1CCC/C=C\C2CC(O)CC2C(O)/C=C\C(=O)O1 (stereo not given)
1 (yes)

Outcome? "COc1cc(N2CCC(N(C)C)CC2)ccc1Nc1ncc(Cl)c(Nc2ccccc2P(C)(C)=O)n1"
1 (yes)

Outcome? "Nc1ncnc2c1c(I)cn2[C@@H]1O[C@H](CO)[C@@H](O)[C@H]1O"
1 (yes)

Outcome? "CCNC(=O)C#Cc1ccc2c(c1)NC(=O)/C2=C(\Nc1ccc(CN(C)C)cc1)c1ccccc1"
1 (yes)

----------
- MEASUREMENT_PROTOCOL: Cytotoxicity activity against human HepG2 cells assessed by CellTiter-Glo luminescent cell viability assay.
- Type: toxicity, cell-based
- Set-up: assay stage confirmatory assay, source tissue liver
- COND: HepG2 cells, read-out: IC50 relative
Active and inactive are the calls of the source. No rule for the calls is given here.
MEASUREMENT_KIND: CC50

Tell us which CC50 value is on record for "CC(C)c1ccccc1OCC(=O)Nc1cccnc1"
4 µM (active)

Tell us which CC50 value is on record for "COc1ccc(C(=O)N2CCCN(CCc3nc4ccccc4n3C)CC2)cc1"
11.3 µM (inactive)

Tell us which CC50 value is on record for "CC(C)CN(CCS(=O)(=O)c1ccc(C(C)(C)C)cc1)C1CCN(C)CC1"
4.4 µM (active)

----------
- MEASUREMENT_PROTOCOL: Cytotoxicity activity against human HepG2 cells assessed by CellTiter-Glo luminescent cell viability assay.
- Assay type: toxicity, cell-based
- Design: assay stage confirmatory assay, source tissue liver
- COND: HepG2 cells, read-out: IC50 relative
Active and inactive are the calls of the source. No rule for the calls is given here.
API: response.call in yes for active, no for inactive

Solved entries:
Outcome? "Cc1ccn(-c2cc(N3CCN(C(=O)Nc4ccc5c(c4)OCO5)CC3)ncn2)n1"
no

Outcome? CC(N)Cc1ccc2oc3ccccc3c2c1 (stereo not given)
yes

Outcome? "Cc1nc2n(c(=O)c1C)CN(CCCO)CN2c1ccc(Cl)cc1Cl"
no

Outcome? "CCS(=O)(=O)N1CCc2ccc(NC(=O)Nc3cccc(C)c3)cc21"
yes

Outcome? "Cn1c(CNC(=O)c2ccc3c(c2)n(C)c(=O)c2ccnn23)nc2ccccc21"
no

Outcome? "COc1ccc2nc(NC(=O)N(C)Cc3nc(C)cs3)sc2c1"
no

Others:
Outcome? "CCN(C)C[C@H]1CCN(Cc2ccc(OCc3ccccc3F)nc2)C1"
yes

Outcome? Nc1nc2nn[nH]c2c(=O)[nH]1 [8-AZAGUANINE]
yes

Outcome? "Cc1ccc(-c2cn3nc(N4CCC(C(=O)NCCCN5CCOCC5)CC4)sc3n2)cc1"
yes

Outcome? N#CCNC(=O)c1ccc(-c2ccnc(Nc3ccc(N4CCOCC4)cc3)n2)cc1 [MOMELOTINIB]
yes

Outcome? "Cc1ccc(-c2nc(C#N)c(S(=O)(=O)N(C)CCO)o2)cc1"
yes

Outcome? "CC(C)=CCC[C@]1(C)C=Cc2c(O)c3c(c(CC=C(C)C)c2O1)O[C@]12C(=C[C@@H]4C[C@H]1C(C)(C)O[C@@]2(C/C=C(/C)C(=O)O)C4=O)C3=O"
yes

Outcome? "COc1ccc(C(=O)Nc2ccc(OC3CCN(C)CC3)cc2)c(OC)n1"
yes

Outcome? CC1(C)C2CC=C(CN(CCN3CCNCC3)C(=O)c3ccccc3Cl)C1C2 (stereo not given)
no

Outcome? "O=S(=O)(C[C@H]1CCOC1)NC1CCN(Cc2ccc(Cl)cc2)CC1"
yes

Outcome? "CN1C(=O)Cc2cc(S(=O)(=O)Nc3cccc4cccnc34)ccc21"
yes

Outcome? "CC(C)[C@H](NCC(=O)N1CCN(c2ccccn2)CC1)c1ccc(Cl)cc1"
yes

Outcome? "NC(=O)c1cnc2[nH]ccc2c1N[C@@H]1[C@@H]2C[C@@H]3C[C@H]1C[C@@](O)(C3)C2"
yes

Outcome? C[C@H]1CNC(=O)c2cnn3ccc(nc23)N[C@H](C)c2cc(F)ccc2O1 [REPOTRECTINIB]
yes

Outcome? CC(C)c1cc(CNc2nc(Nc3cc(C4CC4)[nH]n3)cc(N3CCN(C)CC3)n2)on1 [XL-228]
yes

Outcome? COc1cc(Nc2c(C#N)cnc3cc(OCCCN4CCN(C)CC4)c(OC)cc23)c(Cl)cc1Cl [BOSUTINIB]
yes

Outcome? "Oc1ccc(CN2CCc3ccccc3C2)cc1"
yes

Outcome? "CCn1cc(-c2cccc(C(F)(F)F)c2)c2sc(C(=N)NC3CCS(=O)(=O)CC3)cc2c1=O"
yes

Outcome? "COc1cc2c(NC3CCN(C(C)C)CC3)nc(N3CCC(F)(F)CC3)nc2cc1OCCCN1CCCC1"
yes

----------
- MEASUREMENT_PROTOCOL: Cytotoxicity activity against human HepG2 cells assessed by CellTiter-Glo luminescent cell viability assay.
- Type: toxicity, cell-based
- Design: assay stage confirmatory assay, source tissue liver
- COND: HepG2 cells, read-out: IC50 relative
Active and inactive are the calls of the source. No rule for the calls is given here.
API: response.call in active, inactive

Outcome? "Cc1ccc(NC(=O)c2ccc(Cl)s2)cc1S(=O)(=O)N1CCOCC1"
active

Outcome? CC1=C(c2ccccc2)C1C(=O)NC1(C(N)=O)CCCCC1 (stereo unspecified)
active

Outcome? NCC1CN(CC2CC2)CC12CCCCC2 (stereo unspecified)
inactive

Outcome? "CC(C)NC(=O)N1CC(Oc2ccc(-c3noc(C4CC4)n3)cc2)C1"
active

Outcome? "O=C1c2ccccc2-n2c1nc1ccccc1c2=O"
active
